B1: HDV Ribozyme (parent)
chain: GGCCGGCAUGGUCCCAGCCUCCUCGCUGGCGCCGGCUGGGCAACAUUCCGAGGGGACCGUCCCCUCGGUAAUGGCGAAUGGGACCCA

Variants of: B1
experimentSummary: self-cleavage, relative activity (ratio to wild type); higher = more cleavage; co-transcriptional
assayReadout: self-cleavage
The reply should be a number, written without any unit.

The following variants have reported results that may help.
> print(dat)
         mut   assayreadout  quantitativeresult
1   C3A G29U  self-cleavage              0.0316
2  C64G U72C  self-cleavage               0.364
3  C58A C86A  self-cleavage                1.19
4   C3G U12G  self-cleavage                0.32
5  G17A U65G  self-cleavage               0.773

q: What measured self-cleavage goes with A8U A56U ?
a: 0.705

q: Further, for G74C G81A ?
a: 0.0875

q: Further, for U60C C84G ?
a: 0.856

q: Further, for U37A G59C ?
a: 0.224

q: Further, for G11U C41G ?
a: 0.204

q: Further, for A56U U79C ?
a: 0.429

q: Further, for C13A G29A ?
a: 0.0268

q: Further, for C13G G17U ?
a: 0.0426

q: Further, for G10U A16U ?
a: 0.846

q: Further, for G34U G68U ?
a: 0.0966

q: Further, for U47G ?
a: 1.09

q: Further, for G2C G11A ?
a: 0.0455

q: Further, for C22A C44A ?
a: 0.151

q: Further, for G1U C33U ?
a: 0.436

q: Further, for C48G G82A ?
a: 0.403

q: Further, for G31U C85U ?
a: 0.441
